B1: ZER1 (parent)
chain: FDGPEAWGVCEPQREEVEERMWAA

# Variants of: B1
# Assay Remarks: protein stability index of a GFP-peptide fusion (GPS, HEK-293T) (PSI 1-6); higher = more stable;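 also: lentivirally expressed fusions sorted by FACS into six bins by GFP to DsRed ratio, PSI derived from sequencing read proportions per bin multiplied by bin number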
# Condition Parameters: c terminus: a fixed tail appended
Please use Satisfied whenever protein stability index is not below 3, and Not satisfied whenever it is.

mutation_code=W7H label_class=Satisfied
mutation_code=E19L label_class="Not satisfied"
mutation_code=R14G label_class=Satisfied
mutation_code=E18Q label_class="Not satisfied"
mutation_code=E16K label_class="Not satisfied"
mutation_code=A6Q label_class=Satisfied
mutation_code=R14F label_class="Not satisfied"
mutation_code=R20I label_class="Not satisfied"
mutation_code=Q13A label_class="Not satisfied"
mutation_code=A24H label_class="Not satisfied"
mutation_code=E5R label_class=Satisfied
mutation_code=A24M label_class="Not satisfied"
mutation_code=A6T label_class="Not satisfied"
mutation_code=G8K label_class="Not satisfied"
mutation_code=A23F label_class="Not satisfied"
mutation_code=A23V label_class="Not satisfied"
mutation_code=A23T label_class="Not satisfied"
mutation_code=F1K label_class=Satisfied
mutation_code=G3I label_class="Not satisfied"
